target.of.assay: BaF3-ETV6-NTRK2 (Homo sapiens, UniProt Q16620)
Construct: fused on or other part: P41212 (Transcription factor ETV6)
Sequence (Q16620 538-822 limits assumed): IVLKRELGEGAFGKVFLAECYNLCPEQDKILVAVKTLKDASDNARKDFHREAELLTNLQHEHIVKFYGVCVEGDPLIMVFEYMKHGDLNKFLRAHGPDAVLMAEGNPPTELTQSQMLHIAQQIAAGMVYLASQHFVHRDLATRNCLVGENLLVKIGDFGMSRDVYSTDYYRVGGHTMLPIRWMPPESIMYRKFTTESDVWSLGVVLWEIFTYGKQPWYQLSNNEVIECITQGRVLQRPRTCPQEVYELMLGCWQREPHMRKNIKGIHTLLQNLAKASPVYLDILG
assay.remarks: Cell proliferation inhibition (CCK-8), BaF3-ETV6-NTRK2 stable strain
study.conditions: BaF3-ETV6-NTRK2, 72 hours
One threshold, 100 nM, splits the recorded IC50 values: lower ones are label 1, equal or higher ones are label 0.

Completed entries (count: 5):
{"compound": "Fc1ccc(Cc2ccc3[nH]nc(/C=C/c4ccccn4)c3c2)cc1 [DYX-042]", "target.of.assay": "BaF3-ETV6-NTRK2 (Homo sapiens, UniProt Q16620)", "assigned.class": "label 0"}
{"compound": "Fc1cc(F)cc(C#Cc2ccc3[nH]nc(/C=C/c4ccccn4)c3c2)c1 [DYX-183]", "target.of.assay": "BaF3-ETV6-NTRK2 (Homo sapiens, UniProt Q16620)", "assigned.class": "label 0"}
{"compound": "O=S(=O)(Nc1ccc2[nH]nc(/C=C/c3cnn(CC(F)F)c3)c2c1)c1cc(F)cc(F)c1 [CHW-6]", "target.of.assay": "BaF3-ETV6-NTRK2 (Homo sapiens, UniProt Q16620)", "assigned.class": "label 1"}
{"compound": "Fc1cc(F)cc(-c2ccc3[nH]nc(C#Cc4ccccn4)c3c2)c1 [DYX-115]", "target.of.assay": "BaF3-ETV6-NTRK2 (Homo sapiens, UniProt Q16620)", "assigned.class": "label 0"}
{"compound": "O=S(=O)(Nc1ccc2[nH]nc(/C=C/c3cnn(CC(F)(F)F)c3)c2c1)c1cc(F)cc(F)c1 [CHW-3]", "target.of.assay": "BaF3-ETV6-NTRK2 (Homo sapiens, UniProt Q16620)", "assigned.class": "label 0"}

Kindly consider the entry below.
### Prompt Say whether its IC50 is strictly beneath 100 nM. Entry: Fc1ccc(Cc2ccc3[nH]nc(/C=C/c4ccccn4)c3c2)c(F)c1 [DYX-060]
### Response label 0
